# experimental-target: human Adenosine A1 receptor (Homo sapiens)
# procedure-summary: GTPγS scintillation proximity assay, agonist testing
# test-parameters: agonist activity; membrane extracts of CHO-K1 cells expressing recombinant human A1; read-out: A1AR EC50
pEC50: −log10 of the molar value.
// map pEC50 to label using LOW: < 7; MID: ≥ 7 and < 8; HIGH: ≥ 8

Example entries begin here.
| molecule | discrete-label |
| --- | --- |
| N#Cc1c(N)nc(SC[C@H]2CCOC2)c(C#N)c1-c1ccc(OC2COC2)cc1 | HIGH |
| N#Cc1c(N)nc(SCc2cccnc2)c(C#N)c1-c1ccc(O[C@H]2CCOC2)cc1 | HIGH |
| CN(C)c1nc(SCC2COC2)c(C#N)c(-c2ccc(OC3COC3)cc2)c1C#N [Compound 318] | MID |
| N#Cc1c(SCc2cccnc2)nc(N2CC(O)C2)c(C#N)c1-c1ccc(OC2COC2)cc1 | HIGH |
| N#Cc1c(SCC2COC2)nc(N2CC(F)(F)C2)c(C#N)c1-c1ccc(OCCO)cc1 | LOW |

Which class is correct for the following molecule? `COCCOc1ccc(-c2c(C#N)c(SCc3cccnc3)nc(N3CCC3)c2C#N)cc1` MID

Exam item: assign `COCCOc1ccc(-c2c(C#N)cnc(SCc3cccnc3)c2C#N)cc1` to the correct category. LOW

Please indicate the class for `COCCOc1ccc(-c2c(C#N)c(N)nc(SCc3ccncc3)c2C#N)cc1` based on its pEC50. MID

Returns: class label. Input: `N#Cc1cnc(SCc2cccnc2)c(C#N)c1-c1ccc(OCCO)cc1` MID

Kindly state the category for this molecule: `N#Cc1c(SCC2COC2)nc(N2CC(F)C2)c(C#N)c1-c1ccc(OCCO)cc1` MID

Hi there! Could you help me figure out the category for N#Cc1c(N)nc(SCC2CCOC2)c(C#N)c1-c1ccc(OC2CC(O)C2)cc1 (centres unmarked) please? MID

Hey, which category is CN(C)c1nc(SCC2COC2)c(C#N)c(-c2ccc(OC3COC3)cc2)c1C#N [Compound 222] in, do you know? MID

* * *

# experimental-target: human Adenosine A1 receptor (Homo sapiens)
# Sequence (P30542 1-326): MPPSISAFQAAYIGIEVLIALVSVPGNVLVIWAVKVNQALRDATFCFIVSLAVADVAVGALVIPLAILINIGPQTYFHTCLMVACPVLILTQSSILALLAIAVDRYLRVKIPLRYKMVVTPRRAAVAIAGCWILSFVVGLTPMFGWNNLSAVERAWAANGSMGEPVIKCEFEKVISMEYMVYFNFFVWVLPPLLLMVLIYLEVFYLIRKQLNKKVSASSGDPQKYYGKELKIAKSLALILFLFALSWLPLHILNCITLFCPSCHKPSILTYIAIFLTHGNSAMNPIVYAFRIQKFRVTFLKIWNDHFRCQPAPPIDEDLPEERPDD
# procedure-summary: GTPγS scintillation proximity assay, agonist testing
# test-parameters: agonist activity; membrane extracts of CHO-K1 cells expressing recombinant human A1; read-out: A1AR EC50
experimental-readout: EC50 (nM)
# output: bare number, implied unit nM

| line-notation | experimental-target | EC50 / nM |
| --- | --- | --- |
| N#Cc1c(N)nc(SC2CCOCC2)c(C#N)c1-c1ccc(OC2COC2)cc1 | human Adenosine A1 receptor (Homo sapiens) | 596 |
| COc1nc(SCC2COC2)c(C#N)c(-c2ccc(OCCO)cc2)c1C#N | human Adenosine A1 receptor (Homo sapiens) | 827 |

Per the records, this molecule ( `N#Cc1c(SCC2COC2)nc(N2CCCC2)c(C#N)c1-c1ccc(OC2COC2)cc1` ) has EC50 equal to 93
